Tested on: E. coli ΔtolC
Test: microbe, parasite or virus in culture
Assay type: cell-based
Settings: Escherichia coli, 16 h, read-out: MIC E. coli ΔtolC, small panel, Tables 1a/1b; no visual growth after approx. 16 h
measured-endpoint: MIC (µg/mL)
Answer with a number only, understood to be in µg/mL.

Req: Any idea what its MIC is? The compound is CC(C)Oc1c(NC(=O)c2ccc(NC(=O)[C@H](CC(N)=O)NC(=O)c3ccc(NC(=O)c4ccc(NC(N)=O)cc4)cc3)cc2)ccc(C(=O)Nc2ccc(C(=O)O)cc2)c1O
Resp: 0.03

Req: Can you check CC(=O)Nc1ccc(C(=O)Nc2ccc(C(=O)N[C@@H](CC(N)=O)C(=O)Nc3ccc(C(=O)Nc4ccc(C(=O)Nc5ccc(C(=O)O)cc5)c(O)c4OC(C)C)cc3)cc2)cc1 next?
Resp: 0.06

Req: Would you kindly repeat that for CC(C)Oc1c(NC(=O)c2ccc(NC(=O)[C@H](CC(N)=O)NC(=O)c3ccc(NC(=O)c4ccccc4[N+](=O)[O-])cc3)cc2)ccc(C(=O)Nc2ccc(C(=O)O)cc2)c1O ?
Resp: 2

Req: // same read-out, input: CC(C)Oc1c(NC(=O)c2ccc(NC(=O)[C@H](CC(N)=O)NC(=O)c3ccc(NC(=O)c4cccc([N+](=O)[O-])c4)cc3)cc2)ccc(C(=O)Nc2ccc(C(=O)O)cc2)c1O
Resp: 0.25

Req: // query: CC(C)Oc1c(NC(=O)c2ccc(NC(=O)[C@H](CC(N)=O)NC(=O)c3ccc(NC(=O)c4ccc(N)cc4)cc3)cc2)ccc(C(=O)Nc2ccc(C(=O)O)cc2)c1O
Resp: 32

Req: Do the same for CC(C)Oc1c(NC(=O)c2ccc(NC(=O)[C@H](CC(N)=O)NC(=O)c3ccc(NC(=O)c4ccc(F)cc4)cc3)cc2)ccc(C(=O)Nc2ccc(C(=O)O)cc2)c1O please
Resp: 0.5

Req: Same read-out for CC(C)Oc1c(NC(=O)c2ccc(NC(=O)[C@H](CC(N)=O)NC(=O)c3ccc(NC(=O)c4cccc(N)c4)cc3)cc2)ccc(C(=O)Nc2ccc(C(=O)O)cc2)c1O ?
Resp: 2

Req: # repeat for CC(C)Oc1c(NC(=O)c2ccc(NC(=O)[C@H](CC(N)=O)NC(=O)c3ccc(NC(=O)c4ccc(C#N)cc4)cc3)cc2)ccc(C(=O)Nc2ccc(C(=O)O)cc2)c1O
Resp: 0.06

* * *

Here's what we have: MIC numbers for P. vulgaris DSM-2140.

Req: // query MIC value for entry CC(C)Oc1c(NC(=O)c2ccc(NC(=O)c3ccc(NC(=O)[C@H](CC(N)=O)NC(=O)c4ccc(NC(=O)c5ccc([N+](=O)[O-])cc5)cc4)cc3)c(OC(C)C)c2O)ccc(C(=O)O)c1O [Compound 61]
Resp: 0.5 µg/mL

Req: Continue with CC(C)Oc1c(NC(=O)c2ccc(NC(=O)[C@H](CC(N)=O)NC(=O)c3ccc(NC(=O)c4ccc([N+](=O)[O-])cc4)cc3)cc2)ccc(C(=O)Nc2ccc(C(=O)O)cc2)c1O [Compound 28]
Resp: 0.13 µg/mL

Req: Try CC(C)Oc1c(NC(=O)c2ccc(NC(=O)[C@H](CC(N)=O)NC(=O)c3ccc(NC(=O)c4ccc(C#N)cc4)cc3)cc2)ccc(C(=O)Nc2ccc(C(=O)O)cc2)c1O [Compound 44] next.
Resp: 0.25 µg/mL
